Assay: inhibition of NOD2-driven NF-kB reporter – cell-based, luminescence, uHTS, HEK293 (AID 1566)
Details: HEK293 NOD2/NF-kB luciferase reporter, at 4 µM, hits give high values
Hit rate of the full screen: of about 290,000 compounds, about 1,800 (0.62%) were called active. This is one part of a sample in which actives are shown more often than they occur.
Listed here: items and their measured inhibition.
Answer format: numeric, % implied, no suffix.

Recorded inhibition, per entry:
Sure, the documented inhibition for Fc1ccccc1NC(=S)NNc1ncc(C(F)(F)F)cc1Cl is 13.7

Sure, the documented inhibition for CN(C(=O)COc1ccccc1C(=O)NCCc1ccccc1)c1ccccc1 is -25.8

Sure, the documented inhibition for Cc1ccccc1NC(=S)NNc1ncc(C(F)(F)F)cc1Cl is 4.9

Sure, the documented inhibition for CCOc1ccc(/C=N/n2c(C)nnc2C)cc1OC is 8

Sure, the documented inhibition for N#C/C(=C\Nc1ccc(F)c(Cl)c1)S(=O)(=O)c1ccccn1 is 0.9

We now examine a further compound.
Sure, the documented inhibition for COc1ccccc1C1(O)C(=O)Nc2ccccc21 (stereo unspecified) is 24.1
